- targetUnderTest: cyno IL-17A (cynomolgus monkey, UniProt A0A2K5TTB0 24-155)
- Sequence (A0A2K5TTB0 entry or part of it): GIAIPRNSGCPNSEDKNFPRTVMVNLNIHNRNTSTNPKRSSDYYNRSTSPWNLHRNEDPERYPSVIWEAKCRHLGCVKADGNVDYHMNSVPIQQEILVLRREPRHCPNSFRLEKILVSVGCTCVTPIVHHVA
- experiment: SPR Biacore, captured binder
assayEndpoint: kon
Entry format: amount then unit.

Known results for binders:
1) IL17-B6-5 (antibody, V domains shown, also called pJP243 B6.1 #5VH / pJP244 B6.1 #5VK) VH: EVQLVQSGAEVKKPGESVKISCKASGGSFRSYGISWVRQAPGQGLEWMGGITHFFGITDYAQKFQGRVTITADESTTTAYMELSGLTSDDTAVYYCAREPNDFWNGYYDTHDFDSWGQGTTVTVSS VL: EIVLTQSPDFQSVTPKEKVTITCRASQNIGSELHWYQQKPDQSPKLLIKYASHSISGVPSRFSGSGSGTDFTLTINGLEAEDAATYYCHQSDTLPHTFGQGTKVDIK | 1.21e+07 M⁻¹ s⁻¹
2) IL17-TN-L7-G9 (antibody, V domains shown, Fully human antibody) VH: EVQLLESGGGVVQPGRSLRLSCAASGFIFSNYGMHWVRQAPGKGLEWVAVISYDGSNKYYADSVKGRFTISRDNSKNTLYLEMNSLRPEDTAVYYCAKVGASGDYYYSYGLDVWGQGTTVTVSS VL: QSGLTQPPSASGTPGQTVSISCSGSNSNIGSHSVNWYQQVPGAAPKLLMYGIGQRPSGVPDRFSVSQSGTSASLAISGLQSEDEADYYCATWDDSLGGYVFGSGTKVTVLG | 96000 M⁻¹ s⁻¹
3) IL17-G9-1 (antibody, V domains shown) VH: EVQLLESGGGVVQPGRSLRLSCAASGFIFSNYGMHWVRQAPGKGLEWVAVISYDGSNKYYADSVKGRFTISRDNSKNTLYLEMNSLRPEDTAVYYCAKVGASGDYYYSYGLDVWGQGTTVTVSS VL: QSVLTQPPSASGTPGQTVSISCSGSHSNIGRHPVDWYQQVPGAAPKLLMYYGGYRPSGVPDRFSGSQSGTSASLAISGLQSEDEADYYCATWDDRLVGYVFGSGTKVTVLG | 338000 M⁻¹ s⁻¹

Briefly, kon measured for IL17-G9-M2 (antibody, V domains shown, converted into IgG) VH: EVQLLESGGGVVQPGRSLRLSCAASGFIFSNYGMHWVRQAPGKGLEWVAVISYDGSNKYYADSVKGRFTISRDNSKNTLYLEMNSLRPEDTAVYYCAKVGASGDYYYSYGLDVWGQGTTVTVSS VL: QSVLTQPPSASGTPGQTVSISCSGHNSNIGYHYVHWYQQVPGAAPKLLIYGDGWRPSGVPDRFSGSQSGTSASLAISGLQSEDEADYYCGTWDDWLGGYVFGTGTKVTVLG : 408000 M⁻¹ s⁻¹
